- target_system: Epidermal growth factor receptor (Homo sapiens) (UniProt P00533)
- Sequence (P00533 whole entry, looked up): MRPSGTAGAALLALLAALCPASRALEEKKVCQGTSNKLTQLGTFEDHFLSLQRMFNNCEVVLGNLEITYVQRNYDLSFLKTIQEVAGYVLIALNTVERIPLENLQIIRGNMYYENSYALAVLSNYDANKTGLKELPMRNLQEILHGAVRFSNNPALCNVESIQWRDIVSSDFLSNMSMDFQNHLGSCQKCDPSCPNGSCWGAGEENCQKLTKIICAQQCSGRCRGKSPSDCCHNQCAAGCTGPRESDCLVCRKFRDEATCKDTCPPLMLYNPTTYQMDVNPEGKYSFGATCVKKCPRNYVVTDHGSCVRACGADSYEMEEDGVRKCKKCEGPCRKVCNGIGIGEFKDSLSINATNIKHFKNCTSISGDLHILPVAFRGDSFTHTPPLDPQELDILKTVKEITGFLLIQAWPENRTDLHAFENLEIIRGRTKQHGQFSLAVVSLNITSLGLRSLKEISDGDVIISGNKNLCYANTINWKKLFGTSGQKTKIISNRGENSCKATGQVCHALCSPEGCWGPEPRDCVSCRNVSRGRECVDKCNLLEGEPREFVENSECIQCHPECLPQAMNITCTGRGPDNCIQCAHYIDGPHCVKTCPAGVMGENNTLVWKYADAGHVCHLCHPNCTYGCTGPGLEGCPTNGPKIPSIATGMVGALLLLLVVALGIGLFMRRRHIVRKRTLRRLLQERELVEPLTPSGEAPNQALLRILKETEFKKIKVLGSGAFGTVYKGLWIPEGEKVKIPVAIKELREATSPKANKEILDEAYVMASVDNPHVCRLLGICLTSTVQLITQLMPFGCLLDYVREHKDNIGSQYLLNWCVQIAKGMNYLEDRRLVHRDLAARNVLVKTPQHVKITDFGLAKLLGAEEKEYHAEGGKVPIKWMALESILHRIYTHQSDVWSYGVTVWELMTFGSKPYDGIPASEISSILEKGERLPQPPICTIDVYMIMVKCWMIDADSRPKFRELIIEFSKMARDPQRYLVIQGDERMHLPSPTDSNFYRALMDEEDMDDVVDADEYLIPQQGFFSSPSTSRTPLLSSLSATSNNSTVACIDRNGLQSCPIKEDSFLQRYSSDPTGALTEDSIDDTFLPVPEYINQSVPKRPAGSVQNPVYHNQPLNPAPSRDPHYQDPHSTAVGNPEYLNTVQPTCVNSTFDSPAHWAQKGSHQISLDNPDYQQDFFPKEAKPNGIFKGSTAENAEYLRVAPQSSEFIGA
- assay_details: EGFR binders on small-molecule microarrays, primary screen, biochemical, small-molecule microarray, 635 nm fluorescence (AID 1104);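 note: score merges 667 nm emission intensity with spot signal to noise over triplicate slides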
- condition_info: EGFR binding, higher = more signal
Respond with rule met for composite z-score values of 0.2 and above, rule not met for values below.

The following compounds have reported results that may help.
• COCCOC(=O)N1C(=O)[C@@]2(c3ccccc31)[C@H](C(N)=O)[C@H]1C(=O)O[C@H](c3ccccc3)[C@H](c3ccccc3)N1[C@@H]2c1ccc(OCCO)cc1 = rule not met
• CN(C)CCCCNC(=O)[C@H]1C[C@H]2C(=O)N[C@@H](Cc3ccccc3)C(=O)N2[C@H]1c1cccc(OCCO)c1 = rule not met
• CC(C)=CCN(C(=O)C#Cc1ccccc1)[C@H](CO)c1ccccc1 = rule met
• O=C1OCCC=C[C@H]2OC34C=CCN(c5ccc(Cl)cc5)C(=O)[C@H]3N(CCO)C(=O)[C@@H]4C12 (some centres undefined) = rule not met

Ask | Check this compound for composite z-score at or above 0.2: "COC(=O)[C@@]1(Cc2ccccc2)[C@H]2c3cc(C(=O)N4CCCC4)n(Cc4ccc(C(F)(F)F)nc4)c3C[C@H]2CN1C(=O)c1ccccc1"
Reply | rule not met

Ask | Check this compound for composite z-score at or above 0.2: "COCCOC(=O)N1C(=O)[C@@]2(c3cc(C#CCC(C(=O)OC)C(=O)OC)ccc31)[C@H](C(N)=O)[C@H]1C(=O)O[C@H](c3ccccc3)[C@H](c3ccccc3)N1[C@@H]2c1ccc(OCCO)cc1"
Reply | rule met

====

- assay_details: basal RPMI8226 viability, no added stimulus, profiling panel, cell-based, calcein-AM fluorescence, 48 h, PK04 Diversity Set (AID 1166);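 note: cells grown under basal conditions without added stimulus; test concentration not given here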
- condition_info: RPMI8226 myeloma viability, higher = more signal
measure_name: z-score
Give bare numbers.

For each of the compounds below, note its z-score.
1. C=CCN1C(=O)[C@]2(O[C@H](CCO)[C@@H]([Si](C)(C)c3ccc(OC)cc3)[C@@H]2C)c2ccccc21
2. COCCOC(=O)N1C(=O)[C@@]2(c3cc(C#Cc4ccc(OC)cc4)ccc31)[C@H](C(=O)N1CCCCCCC1)[C@H]1C(=O)O[C@H](c3ccccc3)[C@H](c3ccccc3)N1[C@@H]2c1ccccc1OCCO
3. COc1ccc(CC[C@H](O)c2cccc(OCC(=O)OC(C)(C)C)c2)cc1
4. C=CCC(OC(C)=O)[C@@H]1[C@@H](N(Cc2ccc(-c3ccccc3)cc2)C(=O)c2ccc(-c3ccccc3)cc2)c2cc(OCCCO)ccc2N1C(=O)c1ccc2ccccc2n1 (some centres undefined)
5. CO[C@H]1O[C@H](CO)[C@@H](OC(=O)Nc2ccc(C(F)(F)F)cc2)[C@H](OC(=O)Nc2ccccc2-c2ccccc2)[C@@H]1OC(=O)Nc1ccccc1-c1ccccc1
6. O=C1O[C@@H](c2ccccc2)[C@@H](c2ccccc2)N2[C@@H](c3ccc(O)cc3)[C@]3(C(=O)Nc4ccc(C#CC5=CCCCC5)cc43)[C@@H](C(=O)N3CCCCCCC3)[C@H]12

Reply |
1: -4.37; 2: -0.417; 3: -1.31; 4: -0.189; 5: -0.909; 6: -1.72

====

Provide the reported z-score of each item.
- assay_details: fission yeast growth modulation, primary screen, strain 972, OD600, 24 h, no modulator (AID 1090);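 note: basal condition with compound alone and no growth modifier present; test concentration not given here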
- condition_info: S. pombe 972 growth, higher = more signal, called active from +8 up or from −8 down
Answers are plain numbers.

- COC(=O)[C@@]1(Cc2ccccc2CN=[N+]=[N-])COC(c2ccc(OCCCO)cc2)=N1: -6.67

For each of the compounds below, note its z-score.
1. CCCC[C@@H](O)C1=C(COC)Cn2c(=O)n(-c3ccccc3)c(=O)n2[C@H]1CO
2. COCCOC(=O)N1C(=O)[C@@]2(c3cc(C#Cc4ccc(OC)cc4)ccc31)[C@H](c1ccc(OCCO)cc1)N1[C@H](c3ccccc3)[C@H](c3ccccc3)OC(=O)[C@H]1[C@@H]2C(=O)N1CCCCCCC1
3. Cc1c(NC(=O)/C(C#N)=C/c2ccc(Cl)cc2)c(=O)n(-c2ccccc2)n1C
4. C=CC[C@@]12N=C(c3ccc(OCCCO)cc3)O[C@@H]1c1ccccc1N(Cc1ccccc1)C2=O
5. COC(=O)[C@@]1(Cc2ccc(OC)cc2)[C@@H]2[C@@H](CC(=O)[C@H]2CC(=O)C(=O)N2CCCC2)CN1C(=O)c1ccccc1

Reply |
-1.13
-0.0066
-1.57
-1.53
0.304

For each of the compounds below, note its z-score.
1. COC(=O)C(CC#Cc1ccc2c(c1)[C@]1(C(=O)N2)[C@H](c2ccc(O)cc2)N2[C@H](c3ccccc3)[C@H](c3ccccc3)OC(=O)[C@H]2[C@@H]1C(=O)N1CCc2cc(OC)c(OC)cc2C1)C(=O)OC
2. Cc1ccc(S[C@]2(C(=O)NC3CC3)CC(=O)N(Cc3cc(C(F)(F)F)cc(C(F)(F)F)c3)[C@@H]2c2ccc(CO)cc2I)cc1
3. CC1CC/C=C\[C@H]2OC34C=CCN(CCN5CCOCC5)C(=O)[C@H]3N(CCCCCCO)C(=O)[C@@H]4C2C(=O)O1 (stereo partly specified)
4. CN(C)C(=O)[C@]1(Cc2ccccc2CN=[N+]=[N-])N=C(c2ccc(OCCCO)cc2)O[C@@H]1c1ccccc1N=[N+]=[N-]
5. C/C=C/CN(C(=O)C#Cc1ccccc1)[C@H](CO[Si](C)(C)C(C)(C)C)c1ccccc1

Reply |
[1.12, -3.38, -0.573, 0.498, -0.463]
